Record form. Attribute: NO release (%). Fill in for each entry.
# Test system: H9c2 cells
# Method Description: NO release level in H9c2 cells under normoxia or hypoxia, Griess method
# Assay type: cell-based
# Setup Conditions: H9c2 cells, 4 h, hypoxia (1% O2), compound 15 μM
Remember to follow the number with its unit.

Data request: Indicate its recorded NO release (%); the molecule in question is Cc1cc([N+](=O)[O-])ccc1COC(=O)Oc1ccc(N(C)N=O)cc1 [Compound I3]
Data returned: 43.21%

Data request: Indicate its recorded NO release (%); the molecule in question is CN(N=O)c1ccc(OC(=O)OCc2ccc([N+](=O)[O-])cc2)cc1 [Compound I1]
Data returned: 20.15%

Data request: Indicate its recorded NO release (%); the molecule in question is CN(N=O)c1ccc(OC(=O)OCc2ccc([N+](=O)[O-])cc2Cl)cc1 [Compound I2]
Data returned: 27.37%

Data request: Indicate its recorded NO release (%); the molecule in question is CN(N=O)c1ccc(OC(=O)OCc2ccccc2[N+](=O)[O-])cc1 [Compound I4]
Data returned: 18.33%
